target: TβR3; assay: ELISA-like binding assay
Primed or numbered codes have the meaning given here. Ends that are not written are not given here. FITC′ = not defined here
recorded_metric: pKd
pKd here: minus log base 10 of the concentration, concentration in moles per litre.

// pKd lookup, key: ECGLLPVGRPDRVWRLCK-{FITC′} (cysteine pairing not given here) [PTβR2I]
4.39
